Where these numbers come from: ChEMBL document CHEMBL4014351

- tgt: U5 small nuclear ribonucleoprotein 200 kDa helicase (Homo sapiens)
- procedureDetails: biochemical
readoutKind: pIC50
Quick note: pIC50 values are minus log10 of concentrations in mol/L.

Please report pIC50 for the following molecule: O=C1Nc2cc(=O)n(Cc3ccccc3)cc2CN1c1cccc(OCc2cncs2)c1 5.89

---

- tgt: ATP-dependent RNA helicase DHX29 (Homo sapiens, UniProt Q7Z478)
- Sequence (Q7Z478 whole entry): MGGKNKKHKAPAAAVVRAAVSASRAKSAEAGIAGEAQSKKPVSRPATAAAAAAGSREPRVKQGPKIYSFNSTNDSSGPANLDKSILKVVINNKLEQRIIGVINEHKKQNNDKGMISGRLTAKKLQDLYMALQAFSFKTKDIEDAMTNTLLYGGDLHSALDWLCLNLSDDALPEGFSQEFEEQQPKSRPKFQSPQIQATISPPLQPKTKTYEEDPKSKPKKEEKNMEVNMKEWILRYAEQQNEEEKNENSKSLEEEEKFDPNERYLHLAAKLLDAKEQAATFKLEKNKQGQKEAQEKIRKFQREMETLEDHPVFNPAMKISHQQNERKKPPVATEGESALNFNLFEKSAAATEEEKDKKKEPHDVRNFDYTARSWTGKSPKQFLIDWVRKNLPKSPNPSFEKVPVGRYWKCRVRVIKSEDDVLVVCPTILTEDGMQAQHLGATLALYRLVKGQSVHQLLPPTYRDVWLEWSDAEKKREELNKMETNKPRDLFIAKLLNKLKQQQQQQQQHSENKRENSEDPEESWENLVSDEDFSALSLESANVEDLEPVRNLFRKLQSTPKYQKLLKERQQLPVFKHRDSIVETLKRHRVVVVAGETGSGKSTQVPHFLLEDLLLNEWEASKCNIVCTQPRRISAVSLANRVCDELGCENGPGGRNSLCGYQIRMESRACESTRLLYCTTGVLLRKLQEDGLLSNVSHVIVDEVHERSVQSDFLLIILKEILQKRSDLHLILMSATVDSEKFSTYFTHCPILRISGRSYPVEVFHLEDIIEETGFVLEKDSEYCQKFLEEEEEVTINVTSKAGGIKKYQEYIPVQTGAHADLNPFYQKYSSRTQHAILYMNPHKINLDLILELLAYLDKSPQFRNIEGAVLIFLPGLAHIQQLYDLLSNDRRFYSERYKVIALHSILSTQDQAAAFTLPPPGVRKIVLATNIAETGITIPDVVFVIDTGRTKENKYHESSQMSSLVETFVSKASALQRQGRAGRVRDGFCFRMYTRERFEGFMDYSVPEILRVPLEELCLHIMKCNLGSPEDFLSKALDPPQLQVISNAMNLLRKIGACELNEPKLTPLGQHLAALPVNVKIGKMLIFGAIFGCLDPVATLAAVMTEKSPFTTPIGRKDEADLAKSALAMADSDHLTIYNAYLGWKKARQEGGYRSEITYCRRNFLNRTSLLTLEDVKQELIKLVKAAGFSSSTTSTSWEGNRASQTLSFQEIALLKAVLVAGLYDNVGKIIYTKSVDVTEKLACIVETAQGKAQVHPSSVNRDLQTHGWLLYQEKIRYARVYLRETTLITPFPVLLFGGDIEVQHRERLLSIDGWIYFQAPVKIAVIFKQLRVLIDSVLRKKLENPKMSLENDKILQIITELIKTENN
pIC50: −log10 of the molar value.
readoutKind: pIC50

Please report pIC50 for the following compound: O=C1Nc2cc(=O)n(Cc3ccccc3)cc2CN1c1cccc(OCc2cncs2)c1 < 4.00

---

What follows is a record of pIC50 for Eukaryotic initiation factor 4A-I (Homo sapiens, UniProt P60842).
pIC50: −log10 of the molar value.

Some compounds with known pIC50 results, for comparison:
[[record]]
compound = "O=C1Nc2cc(=O)n(Cc3ccccc3)cc2CN1c1cccc(OCc2cccnc2)c1"
readoutkind = "pIC50"
recordedmeasurement = "< 4.00"

[[record]]
compound = "N=C1/C(=C/c2ccc(-c3cccc(C(=O)O)c3)o2)C(=O)N=C2SC(C3CCCCC3)=NN12"
readoutkind = "pIC50"
recordedmeasurement = 4.24

[[record]]
compound = "Cc1cc2c(cc1N1Cc3cn(Cc4ccccc4)c(=O)cc3NC1=O)OC(c1ncccc1F)CC2 (racemic)"
readoutkind = "pIC50"
recordedmeasurement = "< 4.00"


Okay, next one:
Specify the recorded pIC50 for O=C1Nc2cc(=O)n(Cc3ccccc3)cc2CN1c1cccc(OCc2cncs2)c1 , system: Eukaryotic initiation factor 4A-I (Homo sapiens, UniProt P60842). < 4.00

---

- procedureDetails: physchem
- cond: aqueous buffer, pH 6.8
- Description: Solubility of the compound in pH 6.8 aqueous buffer by UV absorbance method
Property: solubility; scope: individual compounds
State just the number; it will be interpreted in µg/mL.

[[record]]
molecule = "O=C1Nc2cc(=O)n(Cc3ccccc3)cc2CN1c1cccc(OCc2cncs2)c1"
recordedmeasurement = 49

[[record]]
molecule = "O=C1Nc2cc(=O)n(Cc3ccccc3)cc2CN1c1cccc(OCc2cccnc2)c1"
recordedmeasurement = 59


Okay, next one:
Please report solubility for the following compound: O=C1Nc2cc(=O)n(Cc3ccccc3)cc2CN1c1cccc(OCc2ccccn2)c1 69

---

- tgt: U5 small nuclear ribonucleoprotein 200 kDa helicase (Homo sapiens, UniProt O75643)
- Sequence (O75643 whole entry): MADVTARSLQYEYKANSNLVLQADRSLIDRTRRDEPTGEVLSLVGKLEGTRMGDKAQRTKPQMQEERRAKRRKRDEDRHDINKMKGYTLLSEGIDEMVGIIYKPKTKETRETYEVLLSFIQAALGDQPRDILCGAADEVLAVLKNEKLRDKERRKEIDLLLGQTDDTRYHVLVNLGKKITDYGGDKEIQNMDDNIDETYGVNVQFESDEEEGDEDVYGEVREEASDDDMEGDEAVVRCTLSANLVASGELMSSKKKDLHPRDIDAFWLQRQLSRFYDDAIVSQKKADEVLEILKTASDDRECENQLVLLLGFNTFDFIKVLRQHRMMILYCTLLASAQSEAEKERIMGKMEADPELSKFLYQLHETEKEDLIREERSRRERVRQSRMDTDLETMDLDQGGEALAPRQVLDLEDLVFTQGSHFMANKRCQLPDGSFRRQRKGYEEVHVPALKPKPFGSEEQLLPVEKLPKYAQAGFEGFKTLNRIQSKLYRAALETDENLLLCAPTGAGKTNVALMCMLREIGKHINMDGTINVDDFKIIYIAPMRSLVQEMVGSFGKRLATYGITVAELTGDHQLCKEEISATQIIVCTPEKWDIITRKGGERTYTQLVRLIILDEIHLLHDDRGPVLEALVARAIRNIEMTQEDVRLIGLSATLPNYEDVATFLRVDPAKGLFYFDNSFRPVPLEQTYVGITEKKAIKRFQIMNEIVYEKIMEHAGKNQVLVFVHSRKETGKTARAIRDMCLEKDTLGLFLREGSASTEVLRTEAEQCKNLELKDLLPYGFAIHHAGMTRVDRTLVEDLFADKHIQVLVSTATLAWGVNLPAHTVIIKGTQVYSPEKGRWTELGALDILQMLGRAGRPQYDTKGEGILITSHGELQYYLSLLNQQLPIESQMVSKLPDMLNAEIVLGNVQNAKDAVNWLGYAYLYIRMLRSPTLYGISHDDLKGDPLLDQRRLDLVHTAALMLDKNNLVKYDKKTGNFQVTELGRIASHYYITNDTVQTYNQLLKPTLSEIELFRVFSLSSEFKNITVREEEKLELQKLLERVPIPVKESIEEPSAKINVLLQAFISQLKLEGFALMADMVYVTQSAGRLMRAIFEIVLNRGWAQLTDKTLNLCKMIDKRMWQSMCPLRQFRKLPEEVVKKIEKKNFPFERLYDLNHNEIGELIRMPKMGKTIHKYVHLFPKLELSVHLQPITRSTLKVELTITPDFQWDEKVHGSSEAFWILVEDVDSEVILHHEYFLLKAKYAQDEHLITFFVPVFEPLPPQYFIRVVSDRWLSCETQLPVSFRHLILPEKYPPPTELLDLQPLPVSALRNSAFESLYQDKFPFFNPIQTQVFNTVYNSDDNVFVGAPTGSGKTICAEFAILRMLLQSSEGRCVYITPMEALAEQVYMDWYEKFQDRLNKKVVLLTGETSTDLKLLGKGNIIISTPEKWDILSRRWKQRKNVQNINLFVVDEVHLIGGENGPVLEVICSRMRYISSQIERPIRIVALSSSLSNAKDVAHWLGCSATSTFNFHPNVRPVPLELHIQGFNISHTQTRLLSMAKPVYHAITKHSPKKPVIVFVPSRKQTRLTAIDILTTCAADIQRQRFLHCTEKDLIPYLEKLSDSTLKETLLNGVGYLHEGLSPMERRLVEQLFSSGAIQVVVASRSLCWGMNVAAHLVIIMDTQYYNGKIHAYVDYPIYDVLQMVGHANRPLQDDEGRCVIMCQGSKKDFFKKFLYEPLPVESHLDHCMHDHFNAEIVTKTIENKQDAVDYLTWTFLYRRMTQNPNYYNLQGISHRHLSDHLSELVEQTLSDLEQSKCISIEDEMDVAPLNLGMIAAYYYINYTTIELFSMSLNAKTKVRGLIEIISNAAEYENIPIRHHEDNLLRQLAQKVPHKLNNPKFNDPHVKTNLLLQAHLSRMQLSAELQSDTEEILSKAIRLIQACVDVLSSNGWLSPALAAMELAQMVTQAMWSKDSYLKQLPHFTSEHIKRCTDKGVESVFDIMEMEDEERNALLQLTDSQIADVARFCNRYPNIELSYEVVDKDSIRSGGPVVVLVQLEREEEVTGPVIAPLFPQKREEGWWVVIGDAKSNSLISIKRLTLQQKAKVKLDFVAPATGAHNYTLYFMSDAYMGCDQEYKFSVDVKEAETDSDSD
- procedureDetails: biochemical
- Description: Inhibition of full length recombinant human N-terminal His-tagged BRR2 RNA dependent ATPase activity expressed in baculovirus infected Sf9 cells using single stranded poly(U) RNA as substrate after 30 mins by ADP-Glo luminescence assay
readoutKind: pIC50
Quick note: pIC50 values are minus log10 of concentrations in mol/L.

[[record]]
compound = "N=C1/C(=C/c2ccc(-c3cccc(C(=O)O)c3)o2)C(=O)N=C2SC(C3CCCCC3)=NN12"
recordedmeasurement = 5.28


Please report pIC50 for the following compound: Cc1cc2c(cc1N1Cc3cn(Cc4ccccc4)c(=O)cc3NC1=O)OC(c1ncccc1F)CC2 (racemic) 5.28

Please report pIC50 for the following compound: O=C1Nc2cc(=O)n(Cc3ccccc3)cc2CN1c1cccc(OCc2cccnc2)c1 6.74

Please report pIC50 for the following compound: O=C1Nc2cc(=O)n(Cc3ccccc3)cc2CN1c1cccc(OCc2cncs2)c1 7.10

---

- tgt: Eukaryotic initiation factor 4A-III (Homo sapiens, UniProt P38919)
- Sequence (P38919 whole entry): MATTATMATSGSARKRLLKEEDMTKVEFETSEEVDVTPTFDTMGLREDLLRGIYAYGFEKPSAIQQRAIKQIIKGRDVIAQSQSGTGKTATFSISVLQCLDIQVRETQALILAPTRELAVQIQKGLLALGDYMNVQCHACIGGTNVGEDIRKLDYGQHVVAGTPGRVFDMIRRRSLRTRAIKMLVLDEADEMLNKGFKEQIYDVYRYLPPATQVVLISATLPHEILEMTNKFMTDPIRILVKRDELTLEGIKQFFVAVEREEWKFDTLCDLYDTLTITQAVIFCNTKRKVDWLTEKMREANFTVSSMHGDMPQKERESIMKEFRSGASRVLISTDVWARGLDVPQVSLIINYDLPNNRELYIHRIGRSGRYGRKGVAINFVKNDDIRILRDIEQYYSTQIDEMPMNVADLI
readoutKind: pIC50
Quick note: pIC50 values are minus log10 of concentrations in mol/L.

Specify the recorded pIC50 for N=C1/C(=C/c2ccc(-c3cccc(C(=O)O)c3)o2)C(=O)N=C2SC(C3CCCCC3)=NN12 , system: Eukaryotic initiation factor 4A-III (Homo sapiens, UniProt P38919). 4.49
